# credit: paper PMC9482650

- experimental-system: LNX1_2, Q8TBB1
- Sequence (Q8TBB1 371-470): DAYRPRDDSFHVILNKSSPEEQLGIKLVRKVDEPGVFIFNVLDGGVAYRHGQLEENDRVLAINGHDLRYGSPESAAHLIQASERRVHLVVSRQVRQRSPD
- protocol-notes: holdup assay
- Set-up: key: below the threshold = too weak to quantify, mostly under pKd 3.1 to 4
- experimental-conditions: plain residues with an end cap or a label only (N-terminal biotin on a linker: ado-ado)
endpoint-label: pKd

# example entries with known answers
IPLDGETEEL [MYOZ1, Q9NP98]: below the threshold
KSGKQTMLVV [TRIM29, Q14134;Q14134-2]: 4.23
QPCFNKLFPL [LPXN, O60711]: below the threshold
YNNCLEILRV [DCAF7, P61962]: 4.1
QGLAERISVL [PRKD2, Q9BZL6]: below the threshold

Give the measured pKd of VRNLPESEEL [MYOZ3, Q8TDC0] . below the threshold

Another binder to look at: VYPNAKVELV [PDLIM4_iso2, P50479] 3.54

Another binder to look at: TKGPRGPTRV [SAPCD1, Q5SSQ6] below the threshold

Another binder to look at: SKSNFGSEPL [KIF17, Q9P2E2] below the threshold

Another binder to look at: QSPANIYYKV [EFNB1, P52799] 3.61

Another binder to look at: IKAIVDLTGL [TRAF2, Q12933] below the threshold

Another binder to look at: TSSMRGMDAV [RSRC2, Q7L4I2] below the threshold

Another binder to look at: PRAEAEDSFL [PDGFRB, P09619] below the threshold

Another binder to look at: RRRESYSTTV [EVI5, O60447] 3.99

Another binder to look at: YYKRPVQEWV [MMP24, Q9Y5R2] 3.71
